System: LXRα and/or LXRβ
Method: Co-transfection assay (LXRE luciferase reporter, CV-1 cells)
Format: cell-based, human
Measurement context: tested as described in Example 33; IC50 or EC50 for LXRα and/or LXRβ, isoform not specified; read-out: activity (IC50 or EC50 for LXR)
IC50 or EC50 (potency, activation or inhibition) overview

CCS(=O)(=O)c1cccc(-c2ccc(-c3nc(C(C)(C)O)cn3-c3c(C)cccc3C(C)C)c(C)c2)c1: < 1000 nM
Cc1cc(-c2cccc(S(C)(=O)=O)c2)ccc1-n1cc(C(=S)NCC(F)(F)F)nc1-c1ccccc1C(C)C: < 1000 nM

Task item: Form field: reported IC50 or EC50 (potency, activation or inhibition) of `CCS(=O)(=O)c1cccc(-c2ccc(-n3cc(C(C)(C)O)nc3-c3cccc(F)c3Cl)c(F)c2)c1`
Reply: < 1000 nM

Task item: Form field: reported IC50 or EC50 (potency, activation or inhibition) of `CC(C)(O)c1cn(-c2ccc(-c3cccc(S(C)(=O)=O)c3)cc2)c(-c2ccccc2C(F)(F)F)n1`
Reply: < 1000 nM

###

IC50 or EC50 (potency, activation or inhibition) overview
Tested on: LXRα and/or LXRβ
Method: Co-transfection assay (LXRE luciferase reporter, CV-1 cells)
Type: cell-based, human
Measurement context: tested as described in Example 33; IC50 or EC50 for LXRα and/or LXRβ, isoform not specified; read-out: activity (IC50 or EC50 for LXR)

Some solved entries appear below for comparison.
CC(C)(O)c1cn(-c2ccc(-c3cccc(S(C)(=O)=O)c3)cc2)c(Cc2cc(Cl)ccc2F)n1 [Example 474]: < 1000 nM
C=C(C)c1cn(-c2ccc(-c3cccc(S(C)(=O)=O)c3)cc2)c(-c2c(Cl)cccc2Cl)n1 [Example 78]: < 1000 nM
CCS(=O)(=O)c1cccc(-c2ccc(-n3cc(C(=O)NC(C)(C)CO)nc3-c3c(Cl)cccc3Cl)c(Cl)c2)c1 [Example 464]: < 1000 nM

Task item: Form field: reported IC50 or EC50 (potency, activation or inhibition) of Cc1cccc(Cl)c1-c1nc(C(C)(C)O)cn1-c1ccc(-c2ccc(CO)c(S(C)(=O)=O)c2)cc1 [Example 102]
Reply: < 1000 nM

Task item: Form field: reported IC50 or EC50 (potency, activation or inhibition) of CC(C)(O)c1cn(-c2ccc(-c3cccc(S(C)(=O)=O)c3)cc2)c(-c2ccc(F)cc2)n1 [Example 385]
Reply: 1000 to 10000 nM

###

Test system: LXRα and/or LXRβ
Method: Co-transfection assay (LXRE luciferase reporter, CV-1 cells)
Type: cell-based, human
Measurement context: tested as described in Example 33; IC50 or EC50 for LXRα and/or LXRβ, isoform not specified; read-out: activity (IC50 or EC50 for LXR)
IC50 or EC50 (potency, activation or inhibition) overview

NS(=O)(=O)c1cccc(-c2ccc(-n3cc(C(F)(F)F)nc3-c3ccccc3Cl)cc2)c1: < 1000 nM
CCS(=O)(=O)c1cccc(-c2ccc(-n3cc(C(C)(C)O)nc3Cc3cc(Cl)ccc3F)cc2)c1: < 1000 nM
Cc1cc(-c2ccc(CO)c(S(C)(=O)=O)c2)ccc1-n1cc(C(C)(C)O)nc1-c1c(F)cccc1F: < 1000 nM
CC(C)(O)c1cccc(-c2ccc(-n3cc(C(C)(C)O)nc3-c3ccccc3Cl)cc2)c1: 1000 to 10000 nM
CC(O)(c1cn(-c2ccc(-c3cccc(S(C)(=O)=O)c3)cc2)c(-c2ccccc2C(F)(F)F)n1)C(F)(F)F (stereo not drawn): < 1000 nM
CS(=O)(=O)c1cccc(-c2ccc(-n3cc(C(=O)NCCF)nc3-c3c(Cl)cccc3Cl)c(Cl)c2)c1: < 1000 nM
Cc1cc(-c2ccc(CO)c(S(C)(=O)=O)c2)ccc1-n1cc(C(C)(C)O)nc1-c1cccc(F)c1Cl: < 1000 nM
CC(C)(O)c1cn(-c2ccc(-c3cccc(S(C)(=O)=O)c3)cc2Cl)c(C(C)(C)c2cccc(Cl)c2Cl)n1: < 1000 nM

Now for the compound whose IC50 or EC50 (potency, activation or inhibition) we want.
Task item: Form field: reported IC50 or EC50 (potency, activation or inhibition) of `Cc1c(Cl)cccc1-c1nc(C(C)(C)O)cn1-c1ccc(-c2ccc(CO)c(S(C)(=O)=O)c2)cc1F`
Reply: < 1000 nM
